The measured values listed here are drawn from ChEMBL document CHEMBL1139060.

Assay: Volume of distribution in rat at terminal phase at 1 mg/kg, iv
Assay type: ADME, organism-based
Parameters: dose 1 mg/kg, route intravenous
Conditions: in vivo, read-out: Vbeta
// reported Vd for each item listed
Just the number please, in L/kg, no unit attached.

>  <COMPOUND STRUCTURE STRING>
C[C@@H]1CCCN1CCc1cc2cc(-c3ccc(C#N)cc3)ccc2o1

>  <Vd, L/kg>
12

$$$$

Now, please, on to the next molecule.
Item C[C@@H]1CCCN1CCc1ccc2cc(-c3ccc(C#N)cc3)ccc2c1 : provide Vd 6

====

Parameter log10 of Ki, tested on Histamine H3 receptor (Rattus norvegicus, UniProt Q9QYN8), listed per item.
Sequence (Q9QYN8 whole entry): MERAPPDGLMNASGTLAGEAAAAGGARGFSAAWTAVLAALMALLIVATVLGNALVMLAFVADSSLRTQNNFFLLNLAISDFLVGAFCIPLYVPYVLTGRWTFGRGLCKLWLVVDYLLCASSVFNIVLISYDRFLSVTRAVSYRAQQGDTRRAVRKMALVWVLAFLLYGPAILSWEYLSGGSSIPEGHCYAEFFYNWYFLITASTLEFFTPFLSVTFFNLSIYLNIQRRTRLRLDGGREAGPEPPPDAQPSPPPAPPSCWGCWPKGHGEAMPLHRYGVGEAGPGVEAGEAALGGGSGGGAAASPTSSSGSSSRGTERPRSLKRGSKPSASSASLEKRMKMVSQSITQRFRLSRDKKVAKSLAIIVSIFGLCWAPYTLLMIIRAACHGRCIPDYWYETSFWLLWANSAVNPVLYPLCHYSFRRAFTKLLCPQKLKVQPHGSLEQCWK
For clarity, the numbers are log10 values of Ki expressed in nM.

Look over these answered cases.
>  <MOLECULE>
N#Cc1ccc(-c2ccc3cc(CCN4CCC[C@H]4CF)ccc3c2)cc1

>  <log10 of Ki>
0.99

$$$$
>  <MOLECULE>
C[C@H]1CCCN1CCc1ccc2cc(-c3ccc(C#N)cc3)ccc2c1

>  <log10 of Ki>
0.54

$$$$
>  <MOLECULE>
CC1CCCN1CCc1ccc2cc(-c3ccc(C#N)cc3)ccc2c1 (centres undefined)

>  <log10 of Ki>
0.09

$$$$
>  <MOLECULE>
N#Cc1ccc(-c2ccc3cc(CCN4CCC[C@H]4CO)ccc3c2)cc1

>  <log10 of Ki>
1.04

$$$$

Provide measured log10 of Ki value, entry: CN(C)[C@@H]1CCN(CCc2ccc3cc(-c4ccc(C#N)cc4)ccc3c2)C1 2.00

Give a short answer stating reported log10 of Ki for CC[C@@H]1CCCN1CCc1ccc2cc(-c3ccc(C#N)cc3)ccc2c1 . 1.53

Read the entry CC(C)CC1CCCN1CCc1ccc2cc(-c3ccc(C#N)cc3)ccc2c1 (centres undefined) and write its reported log10 of Ki. 2.67

Specify measured log10 of Ki for CCN(CCc1ccc2cc(-c3ccc(C#N)cc3)ccc2c1)C(C)C . 1.48

Supply log10 of Ki value. Item: C[C@@H]1CCCCN1CCc1ccc2cc(-c3ccc(C#N)cc3)ccc2c1 2.15
